target: MetA (HSAT, homoserine acetyl transferase, Rv3341) (Mycobacterium tuberculosis); assay: ThermoFluor, SYPRO Orange
Sequence (P9WJY9 whole entry, looked up): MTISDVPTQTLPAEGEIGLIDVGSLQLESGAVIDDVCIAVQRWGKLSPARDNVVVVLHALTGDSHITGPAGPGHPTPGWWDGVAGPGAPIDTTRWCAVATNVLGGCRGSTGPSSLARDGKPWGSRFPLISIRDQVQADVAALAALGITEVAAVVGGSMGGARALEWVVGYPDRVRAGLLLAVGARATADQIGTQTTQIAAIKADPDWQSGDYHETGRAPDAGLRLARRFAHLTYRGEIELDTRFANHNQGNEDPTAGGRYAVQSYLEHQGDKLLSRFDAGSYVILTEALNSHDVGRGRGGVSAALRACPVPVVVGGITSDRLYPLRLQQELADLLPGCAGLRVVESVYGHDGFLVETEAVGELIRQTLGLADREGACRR
property_measured: pKd
pKd field: float, defined as -log10 of concentration (mol/L).

Qu. Find the measured pKd of CCN(CC)C(=S)SSC(=S)N(CC)CC and report it.
Ans. 4.28
